- studyTarget: CCK2R (Homo sapiens)
- Construct: expressed in transfected cells; host or cells: HEK 293T cells
- Sequence (P32239 1-447): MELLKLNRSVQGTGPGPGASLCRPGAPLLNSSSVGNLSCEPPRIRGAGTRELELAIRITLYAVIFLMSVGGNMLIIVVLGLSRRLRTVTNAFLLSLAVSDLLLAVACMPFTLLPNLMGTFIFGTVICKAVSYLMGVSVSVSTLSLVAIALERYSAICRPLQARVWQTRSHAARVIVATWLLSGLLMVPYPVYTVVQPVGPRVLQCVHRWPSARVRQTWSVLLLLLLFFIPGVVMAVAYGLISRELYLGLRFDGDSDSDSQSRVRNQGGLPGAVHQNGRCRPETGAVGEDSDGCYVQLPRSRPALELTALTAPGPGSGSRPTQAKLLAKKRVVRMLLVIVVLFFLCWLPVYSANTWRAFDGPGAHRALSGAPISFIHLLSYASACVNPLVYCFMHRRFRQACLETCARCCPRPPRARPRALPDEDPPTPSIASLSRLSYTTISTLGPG
- testName: Competitive binding (FACS) on CCK2R-transfected HEK 293T cells with Cy5-labeled Z360
- conditionNotes: HEK 293T transfected, Cy5-labeled Z360 competitive ligand (Table 3)
metricName: IC50 (nM)
Give just the numeric value; nM need not be written.

Examples with answers:
>  <molecule>
C[C@@H](O)[C@H](NC(=O)[C@@H]1CSSC[C@H](NC(=O)[C@@H](Cc2ccccc2)NC(=O)[C@H](CCCCNC(=O)CC[C@H](NC(=O)CNC(=O)c2cccc(NC(=O)N[C@@H]3CN(C4CCCCC4)c4ccccc4N(CC(=O)C(C)(C)C)C3=O)c2)C(=O)O)NC(=O)CN2CCN(CC(=O)O)CCN(CC(=O)O)CCN(CC(=O)O)CC2)C(=O)N[C@@H](Cc2ccc(O)cc2)C(=O)N[C@H](Cc2c[nH]c3ccccc23)C(=O)N[C@@H](CCCCN)C(=O)N[C@@H]([C@@H](C)O)C(=O)N1)C(=O)O [Compound I-26, DOTA-K(-gE-G-Z360)-f[CYwKTC]T-OH]

>  <metricName>
IC50

>  <unitText>
nM

>  <dataValue>
2.67

$$$$
>  <molecule>
C[C@@H](O)[C@H](NC(=O)[C@@H]1CSSC[C@H](NC(=O)[C@@H](Cc2ccccc2)NC(=O)[C@H](CCCCNC(=O)[C@H](CCC(=O)O)NC(=O)c2cccc(NC(=O)N[C@@H]3CN(C4CCCCC4)c4ccccc4N(CC(=O)C(C)(C)C)C3=O)c2)NC(=O)CN2CCN(CC(=O)O)CCN(CC(=O)O)CCN(CC(=O)O)CC2)C(=O)N[C@@H](Cc2ccc(O)cc2)C(=O)N[C@H](Cc2c[nH]c3ccccc23)C(=O)N[C@@H](CCCCN)C(=O)N[C@@H]([C@@H](C)O)C(=O)N1)C(=O)O [Compound I-25, DOTA-K(-E-Z360)-f[CYwKTC]T-OH]

>  <metricName>
IC50

>  <unitText>
nM

>  <dataValue>
1.36

$$$$
>  <molecule>
C[C@@H](O)[C@H](NC(=O)[C@@H]1CSSC[C@H](NC(=O)[C@@H](Cc2ccccc2)NC(=O)COCCOCCNC(=O)[C@H](CCCCNC(=O)COCCOCCNC(=O)[C@H](CCC(=O)O)NC(=O)c2cccc(NC(=O)N[C@@H]3CN(C4CCCCC4)c4ccccc4N(CC(=O)C(C)(C)C)C3=O)c2)NC(=O)CN2CCN(CC(=O)O)CCN(CC(=O)O)CCN(CC(=O)O)CC2)C(=O)N[C@@H](Cc2ccc(O)cc2)C(=O)N[C@H](Cc2c[nH]c3ccccc23)C(=O)N[C@@H](CCCCN)C(=O)N[C@@H]([C@@H](C)O)C(=O)N1)C(=O)O

>  <metricName>
IC50

>  <unitText>
nM

>  <dataValue>
1.28

$$$$

Req: Tell me IC50 reported for C[C@@H](O)[C@H](NC(=O)[C@@H]1CSSC[C@H](NC(=O)[C@@H](Cc2ccccc2)NC(=O)[C@H](CCCCNC(=O)COCCOCCNC(=O)[C@H](CCC(=O)O)NC(=O)c2cccc(NC(=O)N[C@@H]3CN(C4CCCCC4)c4ccccc4N(CC(=O)C(C)(C)C)C3=O)c2)NC(=O)CN2CCN(CC(=O)O)CCN(CC(=O)O)CCN(CC(=O)O)CC2)C(=O)N[C@@H](Cc2ccc(O)cc2)C(=O)N[C@H](Cc2c[nH]c3ccccc23)C(=O)N[C@@H](CCCCN)C(=O)N[C@@H]([C@@H](C)O)C(=O)N1)C(=O)O [Compound I-28, DOTA-K(-OEG-E-Z360)-f[CYwKTC]T-OH]
Resp: 4.84
